System: HT-29
PROTOCOL SUMMARY: viability reduction measured by resazurin – cell-based, Alamar Blue fluorescence, multiple timepoints, mechanism study for HRAS target identification project, profiling panel (AID 652144)
CONDITION SUMMARY: Cancer/normal cell panel viability, 8-48 h
Records with an inconclusive call do not appear. The source made the active and inactive calls. How the calls were made is not given here.
Outcomes: active, inactive

{"COMPOUND": "C#CCCCC(=O)NCCOCCOCCOc1ccc(N(C(=O)CCl)C(C(=O)NCCc2ccccc2)c2cccs2)cc1Cl (stereo unspecified)", "CLASS": "active"}
{"COMPOUND": "CCC(=O)N(c1ccc(OC)c(Cl)c1)C(C(=O)NCCc1ccccc1)c1cccs1 (stereo unspecified)", "CLASS": "inactive"}
{"COMPOUND": "Cc1onc(C(=O)N2CCN(C(c3ccc(Cl)cc3)c3ccc(Cl)cc3)CC2)c1[N+](=O)[O-]", "CLASS": "active"}
{"COMPOUND": "COC(=O)c1ccc([C@@H]2c3[nH]c4ccccc4c3C[C@@H](C(=O)OC)N2C(=O)CCl)cc1", "CLASS": "active"}
{"COMPOUND": "COc1ccc(N(C(=O)CCl)C(C(=O)NCCc2ccccc2)c2cccs2)cc1Cl (stereo unspecified)", "CLASS": "active"}
{"COMPOUND": "CC(C)(C)OC(=O)NCCOCCOCCOc1ccc(N(C(=O)CCl)C(C(=O)NCCc2ccccc2)c2cccs2)cc1Cl (stereo unspecified)", "CLASS": "active"}
